target: P2Y purinoceptor 14 (Homo sapiens); assay: Agonist activity at human P2Y14 expressed in COS7 cells assessed as stimulation of PLC-mediated [3H]inositol hydrolysis; type: functional, cell-based, COS-7
Sequence (Q15391 whole entry): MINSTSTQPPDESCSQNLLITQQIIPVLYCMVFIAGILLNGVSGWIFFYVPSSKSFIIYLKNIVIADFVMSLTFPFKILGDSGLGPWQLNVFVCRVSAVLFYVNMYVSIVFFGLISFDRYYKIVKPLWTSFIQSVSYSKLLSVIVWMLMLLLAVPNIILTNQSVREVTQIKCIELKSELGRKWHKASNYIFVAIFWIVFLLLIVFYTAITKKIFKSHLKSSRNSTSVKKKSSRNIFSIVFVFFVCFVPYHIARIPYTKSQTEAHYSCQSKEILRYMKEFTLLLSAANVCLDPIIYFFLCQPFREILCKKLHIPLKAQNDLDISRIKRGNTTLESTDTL
Field: EC50. Provide a value for each of the molecules that follow.

The value of EC50 recorded for O=c1ccn([C@@H]2O[C@H](COP(=O)(O)OP(=O)(O)O[C@H]3[C@H](O)[C@@H](O)[C@H](O)[C@@H](O)[C@@H]3O)[C@@H](O)[C@H]2O)c(=O)[nH]1 when tested on P2Y purinoceptor 14 (Homo sapiens) reads 1880 nM (agonist)

Entry CSc1ccn([C@@H]2O[C@H](COP(=O)(O)OP(=O)(O)O[C@H]3O[C@H](CO)[C@@H](O)[C@H](O)[C@H]3O)[C@@H](O)[C@H]2O)c(=O)n1 ; assay system P2Y purinoceptor 14 (Homo sapiens); EC50 recorded at > 10000 nM

Param item: O=C(O)[C@H]1O[C@H](OP(=O)(O)OP(=O)(O)OC[C@H]2O[C@@H](n3ccc(=O)[nH]c3=S)[C@H](O)[C@@H]2O)[C@H](O)[C@@H](O)[C@@H]1O ; param system: P2Y purinoceptor 14 (Homo sapiens); output EC50: 420 nM (agonist)

Readout EC50 for O=c1ccn([C@@H]2O[C@H](COP(=O)(O)OP(=O)(O)OC[C@@]3(O)O[C@H](CO)[C@@H](O)[C@@H]3O)[C@@H](O)[C@H]2O)c(=O)[nH]1 , test system P2Y purinoceptor 14 (Homo sapiens), was 880 nM (agonist)

Entry O=c1[nH]c(=S)ccn1[C@@H]1O[C@H](COP(=O)(O)OP(=O)(O)O[C@H]2O[C@H](CO)[C@@H](O)[C@H](O)[C@H]2O)[C@@H](O)[C@H]1O : EC50 on P2Y purinoceptor 14 (Homo sapiens) = 350 nM (agonist)

Entry O=c1ccn([C@@H]2O[C@H](COP(=O)(O)OP(=O)(O)O[C@H]3O[C@H](CO)[C@@H](O)[C@H](O)[C@H]3O)[C@@H](O)[C@H]2O)c(=S)[nH]1 , P2Y purinoceptor 14 (Homo sapiens) data, EC50 value: 49 nM (agonist)

Bench note, P2Y purinoceptor 14 (Homo sapiens): entry O=C(O)[C@H]1O[C@H](OP(=O)(O)OP(=O)(O)OC[C@H]2O[C@@H](n3ccc(=O)[nH]c3=O)[C@H](O)[C@@H]2O)[C@H](O)[C@@H](O)[C@@H]1O , its EC50 = 370 nM (agonist)
